FYI, the data here is from ChEMBL document CHEMBL4038321.

assay: Stability in rat serum assessed as parent compound remaining at 100 uM measured after 1 hr by HPLC analysis (reference value: 93 to 97%); format: ADME, cell-free; conditions: read-out: Stability
Collected remaining at 1 h, 100 µM values appear next to each entry.
metric: remaining at 1 h, 100 µM (%)

>>> quantitative_result("CC(C)C[C@H](NC(=O)OCc1ccccc1)C(=O)N[C@@H](CCCNC(=N)N)C(=O)Nc1ccc(COC(=O)NCCCC(O)(P(=O)(O)O)P(=O)(O)O)cc1")
97
>>> quantitative_result("N=C(N)NCCC[C@H](NC(=O)[C@@H]1CCCN1C(=O)OCc1ccccc1)C(=O)Nc1ccc(COC(=O)NCCCC(O)(P(=O)(O)O)P(=O)(O)O)cc1")
89

###

target: cathepsin K (Rattus norvegicus); assay: Substrate activity at recombinant rat cathepsin K expressed in Escherichia coli assessed as compound cleavage at 100 uM after 2 hrs by HPLC analysis; assay type: ADME; settings: read-out: Drug degradation
Sequence (O35186 whole entry): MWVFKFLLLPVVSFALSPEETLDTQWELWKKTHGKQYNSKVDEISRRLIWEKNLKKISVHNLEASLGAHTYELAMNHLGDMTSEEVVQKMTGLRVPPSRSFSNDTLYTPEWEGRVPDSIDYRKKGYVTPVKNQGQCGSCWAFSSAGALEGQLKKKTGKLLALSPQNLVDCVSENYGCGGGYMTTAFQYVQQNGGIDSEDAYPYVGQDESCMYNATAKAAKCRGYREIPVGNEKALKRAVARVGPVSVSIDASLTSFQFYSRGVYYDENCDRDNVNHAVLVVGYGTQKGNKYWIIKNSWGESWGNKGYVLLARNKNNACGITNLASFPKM
Listing: metabolised at 2 h, 100 µM of selected compounds
metric: metabolised at 2 h, 100 µM (%)

>>> quantitative_result("CC(C)C[C@H](NC(=O)OCc1ccccc1)C(=O)N[C@@H](CCCNC(=N)N)C(=O)Nc1ccc(COC(=O)NCCCC(O)(P(=O)(O)O)P(=O)(O)O)cc1")
80
>>> quantitative_result("N=C(N)NCCC[C@H](NC(=O)[C@@H]1CCCN1C(=O)OCc1ccccc1)C(=O)Nc1ccc(COC(=O)NCCCC(O)(P(=O)(O)O)P(=O)(O)O)cc1")
10

###

molecular target: cathepsin K (Homo sapiens, UniProt P43235); assay: Substrate activity at recombinant human cathepsin K expressed in Escherichia coli assessed as compound cleavage at 100 uM after 2 hrs by HPLC analysis; assay type: ADME; conditions: read-out: Drug degradation
Sequence (P43235 whole entry): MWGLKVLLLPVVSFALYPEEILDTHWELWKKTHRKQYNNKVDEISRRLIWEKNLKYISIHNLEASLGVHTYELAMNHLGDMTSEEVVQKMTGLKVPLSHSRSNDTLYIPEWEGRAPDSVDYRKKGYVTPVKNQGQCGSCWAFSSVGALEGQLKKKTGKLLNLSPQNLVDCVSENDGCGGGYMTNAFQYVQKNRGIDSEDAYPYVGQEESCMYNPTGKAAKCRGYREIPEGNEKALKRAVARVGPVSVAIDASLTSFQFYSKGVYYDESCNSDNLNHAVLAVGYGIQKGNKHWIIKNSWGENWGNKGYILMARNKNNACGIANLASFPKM
Measured metabolised at 2 h, 100 µM accompanies every entry in the list below.
metric: metabolised at 2 h, 100 µM

>>> result("CC(C)C[C@H](NC(=O)OCc1ccccc1)C(=O)N[C@@H](CCCNC(=N)N)C(=O)Nc1ccc(COC(=O)NCCCC(O)(P(=O)(O)O)P(=O)(O)O)cc1")
"75%"
>>> result("N=C(N)NCCC[C@H](NC(=O)[C@@H]1CCCN1C(=O)OCc1ccccc1)C(=O)Nc1ccc(COC(=O)NCCCC(O)(P(=O)(O)O)P(=O)(O)O)cc1")
"98%"

###

experiment: Stability in rat serum assessed as parent compound remaining at 100 uM measured after 4 hrs by HPLC analysis (reference value: 93 to 97%); assay type: ADME, cell-free; details: read-out: Stability
metric: remaining at 4 h, 100 µM (%)

>>> quantitative_result("CC(C)C[C@H](NC(=O)OCc1ccccc1)C(=O)N[C@@H](CCCNC(=N)N)C(=O)Nc1ccc(COC(=O)NCCCC(O)(P(=O)(O)O)P(=O)(O)O)cc1")
86
>>> quantitative_result("N=C(N)NCCC[C@H](NC(=O)[C@@H]1CCCN1C(=O)OCc1ccccc1)C(=O)Nc1ccc(COC(=O)NCCCC(O)(P(=O)(O)O)P(=O)(O)O)cc1")
77

###

test: Stability in rat plasma assessed as parent compound remaining at 100 uM measured after 1 hr by HPLC analysis (reference value: 49 to 86%); type: ADME, cell-free; conditions: read-out: Stability
metric: remaining at 1 h, 100 µM

>>> result("CC(C)C[C@H](NC(=O)OCc1ccccc1)C(=O)N[C@@H](CCCNC(=N)N)C(=O)Nc1ccc(COC(=O)NCCCC(O)(P(=O)(O)O)P(=O)(O)O)cc1")
"78%"
>>> result("N=C(N)NCCC[C@H](NC(=O)[C@@H]1CCCN1C(=O)OCc1ccccc1)C(=O)Nc1ccc(COC(=O)NCCCC(O)(P(=O)(O)O)P(=O)(O)O)cc1")
"95%"
